We begin with a simple list: items and their reported TGI.
Tested on: HL-60(TB) leukemia
Assay: NCI tumour cell line growth inhibition, 48 h
quantity: TGI

Clc1nc(Cl)nc(Nc2cccc3ccccc23)n1 ... > 100 µM
O=C1CCC/C=C\C[C@H]2C=CC(=O)/C2=C/C[C@H](C/C=C\CC(F)(F)F)O1 ... 2.58 µM
COC(=O)[C@@]1(C)/C(=N/NS(=O)(=O)c2ccc(C)cc2)CCC[C@@H]1C ... > 100 µM
O=c1nc(N2CCNCC2)oc2cc(Cl)oc(=O)c12 ... 8.47 µM
[N-]=[N+]=CC(=O)OC1Cc2ccccc2C1 ... > 100 µM
COc1ccc(-c2nnc(N3CCN(C(=O)CN4CCN(c5ccccc5)CC4)CC3)nc2-c2ccc(OC)cc2)cc1 ... 5.56 µM
C=C(C)C1CCC2(C)CC1c1c(c(C)cc3c1[nH]c1ccccc13)O2 (stereo not given) ... > 25 µM
CCOC(=O)c1sc2c(c1OC(=O)c1ccc(OC)cc1)c(=O)n(-c1ccccc1)c(=S)n2-c1ccccc1 ... > 100 µM
O=c1c2ncn(C3CCCO3)c2n(-c2ccccc2)c(=S)n1-c1ccccc1 (stereo not given) ... > 100 µM
CCOC(=O)/C=C/c1ccc(C#Cc2ccccc2)cc1 ... > 100 µM
CCc1c(Cl)c(C)cc(O)c1Cl ... 40.8 µM
COC12C(COC(N)=O)C3=C(C(=O)C(C)=C(N)C3=O)N1CC1C2N1C (stereo not given) ... 8.66 µM
O=C(CNS(=O)(=O)Cc1ccccc1)NNc1ccccc1 ... > 100 µM
CCOC(=O)C1SC(=Nc2ccccc2)N=C1C (stereo not given) ... > 100 µM
C[N+](C)(C)CC1CCC/C1=N\OC(=O)c1ccccc1 (stereo not given) ... > 100 µM

----------
Test system: MDA-MB-231 breast
Test: NCI tumour cell line growth inhibition, 48 h
We use 20 µM as the dividing line for TGI: on or above the line is 1, below is 0.

CC1(C)OC[C@@H]([C@H](O)C2C=CC(=O)S2)O1 (some centres not stated) ... 1
[N-]=[N+]=CC(=O)OC1Cc2ccccc2C1 ... 1
C=CCc1ccc(O)c(-c2ccc(O)c(CC=C)c2)c1 ... 1
CCOC(=O)c1nc2cc(F)c(N3CCOCC3)cc2[nH]c1=O ... 1
O=C(/C=C/C=C/c1ccccc1)c1ccccc1 ... 1
[N-]=[N+]=NCc1nc(N)c2c3c(sc2n1)CCCC3 ... 1
Oc1ccc(Nc2c3ccccc3nc3occ(Cl)c23)cc1 ... 0
COc1ccc(C2=C(c3ccc(OC)cc3)C(=O)N3CCCC3C2)cc1 (configuration not stated) ... 1
C[C@H]1C(=O)O[C@@H]2CCN3CC=C(COC(=O)[C@](C)(O)[C@@]1(C)O)[C@H]23 ... 1
CC1=C(CO)C2=C(C)C3(CC3)[C@@](C)(O)C(=O)C2=C1 ... 0
C[C@@]12CCC[C@@](C)(C(=O)O)C1CC[C@]13CC(=O)[C@](CO)(C1)[C@@H](O)CC32 (some centres not stated) ... 1
C#Cc1nc(Nc2cc(C)[nH]n2)c2ccccc2n1 ... 0
CSc1ccccc1C#C/C=C\C#Cc1ccccc1N ... 1
COC1(OC)CCCc2c1no[n+]2[O-] ... 1
O=C1NC(N/N=C\C(O)C(O)C(O)C(O)CO)=N/C1=C/c1ccc(Cl)cc1 (configuration not stated) ... 1
Cc1ccc(Cl)c2c(=O)c3ccc(N)cc3sc12 ... 1
CCCCCCCN=C(N)c1ccc(N2CCN(c3ccc(C(N)=NCCCCCCC)cc3)CC2)cc1 ... 0
COc1ccc(C[C@H]2COC(=O)[C@@H]2Cc2cccc(Br)c2)cc1OC ... 1
COC(=O)C1=C(O)c2ccc(Cl)cc2S(=O)(=O)N1C ... 1
NCC(=O)Nc1ccc(S(=O)(=O)O)c2cc(S(=O)(=O)O)cc(S(=O)(=O)O)c12 ... 1
COC(=O)c1ccc2c(c1)/C(=C\c1cc(Br)c(O)c(Br)c1)C(=O)N2 ... 1

----------
System: CCRF-CEM leukemia
Assay: NCI tumour cell line growth inhibition, 48 h
quantity: TGI (µM)

CCOC(=O)/C(=C/c1ccc(N(C)C)cc1)N(CC)CC ... 91.9
C[C@H]1CN[C@@H]2[C@@H](C)[C@H]3[C@@H](C[C@H]4[C@@H]5CC[C@H]6C[C@@H](N)CC[C@]6(C)[C@H]5CC[C@]34C)O[C@@]2(O)C1 ... 4.27
COc1ccc2c(C(=O)c3cn(CCN4CCOCC4)c4ccccc34)cccc2c1 ... 85.5
COc1cccc2c1C(=O)c1c(O)c3c(c(O)c1C2=O)C[C@@](O)(/C(C)=N/NC(=O)c1ccc(Cl)cc1)C[C@@H]3OC1CC(N)C(O)C(C)O1 (stereo not given in full) ... 2.32

----------
Tested on: RXF-631 renal
Test: NCI tumour cell line growth inhibition, 48 h
quantity: TGI

Nc1n[nH]c(=O)c2c1c(I)cn2C1OC(CO)C(O)C1O (stereo not drawn) ... 7.36 µM
O=C(Nc1ccc([N+](=O)[O-])cc1[N+](=O)[O-])C(=O)C(C(=O)c1ccc2ccccc2c1)C1OC(=O)c2ccccc21 (stereo not drawn) ... 66.3 µM
CCOC(=O)C1SC(=Nc2ccccc2)N=C1C (stereo not drawn) ... > 100 µM
Cn1cnnc1Sc1c([N+](=O)[O-])ncn1C ... > 100 µM
C[Si](C)(C)/C(Br)=C\CCN1C(=O)CCC1=O ... > 100 µM
CS(=O)(=O)c1ccc(-c2cc(-c3ccc(S(C)(=O)=O)cc3)[n+](-c3cc(-c4ccccc4)c([O-])c(-c4ccccc4)c3)c(-c3ccc(S(C)(=O)=O)cc3)c2)cc1 ... > 100 µM
COc1ccc(/C(Cl)=C(\C=O)c2ccc(OC)cc2)cc1 ... > 100 µM
COc1ccc2c(c1)CCCN2CCCCCCCCCCN(CCC(C)C)CCC(C)C ... 27.3 µM

----------
System: UACC-257 melanoma
Assay: NCI tumour cell line growth inhibition, 48 h
We begin with a simple list: items and their reported TGI.
quantity: TGI

CC(C)C(C/C=C1\CC(CO)(COC(=O)C(C)(C)C)OC1=O)C(C)C (stereo not given) ... 32.6 µM
C=CCN(C(=O)CNC(=O)C(F)(F)F)c1cc(OCc2ccccc2)c2c(c1)c(C)cn2S(=O)(=O)c1ccccc1 ... > 100 µM
COC(=O)c1s/c(=N\C(=S)N(C)C)n(-c2ccc(Cl)cc2)c1C(=O)OC ... > 100 µM
COCOC1C=CCCCC2=CC(C)=C(CC1)O2 (stereo not given) ... > 100 µM
O=C(CC(C(=O)c1ccsc1)c1ccccc1)c1ccccc1 (stereo not given) ... > 100 µM

----------
Tested on: IGROV1 ovarian
Assay: NCI tumour cell line growth inhibition, 48 h
quantity: TGI

S=c1[nH]c2c(Cl)c(Cl)c(Cl)c(Cl)c2[nH]1 ... 37.8 µM
Oc1cn(-c2ccc(Cl)cc2)nc1-c1n[nH]c(=S)n1-c1ccccc1 ... 22.2 µM
COc1ccc(N=NC(=O)NC(CC(C)C)C(=O)NC(C)C(=O)O)cc1 (stereo not given) ... > 100 µM
CC(Oc1ccc(Cl)cc1Cl)C(=O)NN1C(=O)CSC1c1ccccc1 (stereo not given) ... > 100 µM
CCOC(=O)/C(=C/c1ccc(N(C)C)cc1)N(CC)CC ... > 100 µM
C[C@@]12CCC[C@@](C)(C(=O)O)C1CC[C@]13CC(=O)[C@](CO)(C1)[C@@H](O)CC32 (stereo not given in full) ... > 100 µM
COC1=C(Br)[C@H](O)[C@@]2(C=C1Br)CC(C(=O)NCCCOc1c(Br)cc(C(O)CNC(C)=O)cc1Br)=NO2 (stereo not given in full) ... > 10 µM
COC(=O)c1ccc2c(c1)/C(=C\c1cc(Br)c(O)c(Br)c1)C(=O)N2 ... > 25 µM
Cc1cc(/N=C/c2ccc(F)cc2)n(-c2ccccc2)n1 ... > 100 µM
CN(C)CCC(=O)C(=Cc1ccc(O)cc1)C(=O)CCN(C)C ... > 100 µM

----------
Test system: K-562 leukemia
Experiment: NCI tumour cell line growth inhibition, 48 h
quantity: TGI

O=C(/C=C/C=C/c1ccccc1)c1ccccc1 ... 66.2 µM
[N-]=[N+]=NCc1nc(N)c2c3c(sc2n1)CCCC3 ... > 40.6 µM
COC(=O)[C@@]1(C)/C(=N/NS(=O)(=O)c2ccc(C)cc2)CCC[C@@H]1C ... > 100 µM
COc1ccc2c(C(=O)c3cn(CCN4CCOCC4)c4ccccc34)cccc2c1 ... > 100 µM
CS(=O)(=O)c1ccc(-c2cc(-c3ccc(S(C)(=O)=O)cc3)[n+](-c3cc(-c4ccccc4)c([O-])c(-c4ccccc4)c3)c(-c3ccc(S(C)(=O)=O)cc3)c2)cc1 ... > 100 µM
S=c1[nH]c2c(Cl)c(Cl)c(Cl)c(Cl)c2[nH]1 ... 38.4 µM
CC(C)=CCC/C(C)=C/CC/C(C)=C/CC(CO)N(C)CC/C=C(\C)CCC=C(C)C (stereo not given) ... 3.7 µM
Oc1cn(-c2ccc(Cl)cc2)nc1-c1n[nH]c(=S)n1-c1ccccc1 ... > 100 µM
COc1ccccc1Nc1ncc(-c2ccccc2)o1 ... > 25 µM
COc1cc(/C=C\c2cc(OC)c(OC)c(OC)c2)cc(N/C=C\C(=O)c2cc(OC)c(OC)c(OC)c2)c1OC ... > 100 µM
O=C1c2cc3c(cc2-c2c1c1cc(Cl)c(Cl)cc1c(=O)n2C[C@H](O)CO)OCO3 ... > 100 µM
C=CCN1CCC23c4c5ccc(O)c4OC2C(=NN=C2CCC4(O)C6Cc7ccc(O)c8c7C4(CCN6CC=C)C2O8)CCC3(O)C1C5 (stereo not given) ... 78.7 µM
C[C@]12CCC(=O)C=C1CC[C@@H]1C2CC[C@]2(C)Nc3[nH]ncc3CC12 (stereo not given in full) ... > 100 µM
COc1ccc(-c2cc(/C=C/C(=O)c3ccc(OC)c(OC)c3)[nH]n2)cc1 ... 10.7 µM
COC(=O)NC(C(F)(F)F)(C(F)(F)F)P1(=O)OCCCO1 ... > 100 µM
COC(=O)/C=C\C(C#N)(C#N)N=Cc1cc(Br)cs1 ... > 100 µM
CC1CCN(C(=O)OCc2nc3nc(Cl)nc(N4CCOCC4)c3[nH]2)CC1 ... 13.6 µM
O=C1NI(C#Cc2ccccc2)c2ccccc21 ... > 100 µM
COc1ccc(N=NC(=O)NC(CC(C)C)C(=O)NC(C)C(=O)O)cc1 (stereo not given) ... > 38.4 µM
COC(=O)c1s/c(=N\C(=S)N(C)C)n(-c2ccc(Cl)cc2)c1C(=O)OC ... > 100 µM
